Procedure Summary: in vitro
Test Parameters: human, hela cells, % viability
Measured Metric: viability at 28.5 h, 10 µM

Sample COc1cccc(CCNCC(O)COc2ncnc3ccccc23)c1 (stereo not drawn) [CBK028127T] ; viability at 28.5 h, 10 µM observed: 93.1%

Sample CC(C)c1ccc(/C=C/C(=O)NCC2COc3ccccc3O2)cc1 (stereo not drawn) [CBK149619] ; viability at 28.5 h, 10 µM observed: 120%

Sample CCCC1SCC(=O)N1c1nncs1 (stereo not drawn) [CBK023497] ; viability at 28.5 h, 10 µM observed: 95.4%

Sample COc1ccccc1N(CC(O)CN1C(=O)NC(C)(C)C1=O)S(=O)(=O)c1ccc(C)cc1 (stereo not drawn) [CBK263581] ; viability at 28.5 h, 10 µM observed: 99.4%

Sample FC(F)(F)c1ccc(CN2CCCN(c3ccnc(OCC4COc5ccccc5O4)n3)CC2)cc1 (stereo not drawn) [CBK083233T] ; viability at 28.5 h, 10 µM observed: 93%

Sample Cc1csc2ncc(C(=O)NCc3ccc4c(c3)OCO4)c(=O)n12 [CBK287292] ; viability at 28.5 h, 10 µM observed: 109%

Sample CNC(=O)c1ccc(-c2ccc(CNC(=O)C(C)Oc3ccc(C)c(C)c3)cc2)nc1C (stereo not drawn) [CBK286014] ; viability at 28.5 h, 10 µM observed: 104%

Sample Clc1ccc(CN2CCCN(c3nccc(OCC4COc5ccccc5O4)n3)CC2)cc1Cl (stereo not drawn) [CBK083967] ; viability at 28.5 h, 10 µM observed: 97.3%

Sample COCc1ccc(C(=O)N2CCN3C(=O)CCC32C)o1 (stereo not drawn) [CBK282091] ; viability at 28.5 h, 10 µM observed: 104%

----------
Procedure Summary: in vitro
Test Parameters: human, hela cells, % viability
I'd be grateful if you could share measured viability at 28.5 h, 10 µM for these entries.
Report the figure in % without appending any unit label.

Sample O=C(Cn1cccc(C(=O)NC2CCCCC2)c1=O)NCC1(c2ccccc2Cl)CC1 [CBK286054] ; viability at 28.5 h, 10 µM observed: 94.6

Sample COc1ccc(-c2csc(N3CCN(C)CC3)n2)cc1F [CBK305910] ; viability at 28.5 h, 10 µM observed: 88.7

Sample CCOC(=O)c1c(C)n(-c2ccc(OC)cc2)c2ccc(O)c(CN(C)C)c12 [CBK261609C] ; viability at 28.5 h, 10 µM observed: 88

Sample COc1cccn(CC(=O)N2CCc3sc(C(=O)N(C)C)cc3C2)c1=O [CBK307665] ; viability at 28.5 h, 10 µM observed: 90.5

Sample CC(NC(=O)CCc1ccncc1)c1ccc2c(c1)CCCO2 (stereo not shown) [CBK281624] ; viability at 28.5 h, 10 µM observed: 88.3

Sample Cc1cccc(C)c1NC(=O)Cn1c(SCC(N)=O)nc2ccccc21 [CBK266684] ; viability at 28.5 h, 10 µM observed: 106

Sample Cc1cc(COc2cc(NC(C)C)ncn2)no1 [CBK115887] ; viability at 28.5 h, 10 µM observed: 92.7

Sample CCOC(=O)C(NC(=O)c1c(C)nn(C)c1C)c1cccc(C)c1C (stereo not shown) [CBK304253] ; viability at 28.5 h, 10 µM observed: 98.9

Sample COc1ccc(C(=O)Nc2ccc3c(c2)C(=O)N(CCC(=O)O)C3=O)cc1 [CBK265921] ; viability at 28.5 h, 10 µM observed: 93.1

Sample COc1cc(C(=O)NCC(=O)O)cc(OC)c1OC [CBK261039] ; viability at 28.5 h, 10 µM observed: 89.9

The measurements presented in this section are drawn from paper PMC12040169.
